- Test system: Parabacteroides merdae
- protocolDescription: growth AUC relative to DMSO control (median of replicates) (fraction); higher = more growth (less inhibition), active = hit call of the paper
- assayConditions: 20 µM; 24 h
# growth AUC annotations
observedProperty: growth AUC

{"molecule": "Cc1cc(Cl)ccc1OCC(=O)O.O.[Na]", "recordedValue": 1.04}
{"molecule": "O=C(O)c1nc(Cl)ccc1Cl", "recordedValue": 1.03}
{"molecule": "COP(=O)(NC(C)=O)SC (stereo not drawn)", "recordedValue": 1.01}
{"molecule": "ClC1=C(Cl)[C@]2(Cl)[C@@H]3[C@@H]4C[C@@H]([C@H]5O[C@@H]45)[C@@H]3[C@@]1(Cl)C2(Cl)Cl", "recordedValue": 0.932}
{"molecule": "Nc1ccc(Cl)cc1", "recordedValue": 1.02}
{"molecule": "CC1CNC(=S)N1 (stereo not drawn)", "recordedValue": 1.02}
{"molecule": "Oc1cccc2cccnc12", "recordedValue": 0.993}
{"molecule": "N#CCNC(=O)c1cnccc1C(F)(F)F", "recordedValue": 1.03}
{"molecule": "O=C(Nc1ccccc1)Nc1cnns1", "recordedValue": 0.955}
{"molecule": "Nc1cc(Cl)cc(Cl)c1", "recordedValue": 1.04}
{"molecule": "COC(=O)COc1ccc(Cl)cc1Cl", "recordedValue": 0.964}
{"molecule": "CCOP(=S)(OCC)Oc1ccc(S(C)=O)cc1 (stereo not drawn)", "recordedValue": 1}
{"molecule": "CCOc1cc(OP(=S)(OC)OC)nc(CC)n1", "recordedValue": 0.979}
